test system: 945468-187-T-J2-PDC spheroids viability; assay: Anticancer human tumor 945468-187-T-J2-PDC patient-derived rectal carcinoma cell line growth inhibition [PI3K]; settings: second compound 0.01 µM; first compound 0.1 µM; hits give low values; spheroids with HUVEC and MSC;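 further: spheroids exposed to compounds for seven days before reading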
MEASURE_NAME: viability, T/C (%)
Answers are plain numbers, in %.

CCCS(=O)(=O)Nc1ccc(F)c(C(=O)c2c[nH]c3ncc(-c4ccc(Cl)cc4)cc23)c1F + COc1c(OCCCN2CCOCC2)ccc2c3n(c(=NC(=O)c4cnc(N)nc4)nc12)CCN3 ... 82
CCCS(=O)(=O)Nc1ccc(F)c(C(=O)c2c[nH]c3ncc(-c4ccc(Cl)cc4)cc23)c1F + CC(Nc1ccc2c(c1)OCCn1cc(N3C(=O)OCC3C(F)F)nc1-2)C(N)=O ... 115

Give the measured viability, T/C of CC1(C)CCC(Nc2ncc(C(F)(F)F)c(-c3c[nH]c4c(P(C)(C)=O)c(C#N)ccc34)n2)CN1 (stereo not drawn) + COc1c(OCCCN2CCOCC2)ccc2c3n(c(=NC(=O)c4cnc(N)nc4)nc12)CCN3 . 89.8
